Reported Ki values for the following molecules.
Tgt: UniProt:A0A0H2YPC2
Sequence (A0A0H2YPC2 1-190): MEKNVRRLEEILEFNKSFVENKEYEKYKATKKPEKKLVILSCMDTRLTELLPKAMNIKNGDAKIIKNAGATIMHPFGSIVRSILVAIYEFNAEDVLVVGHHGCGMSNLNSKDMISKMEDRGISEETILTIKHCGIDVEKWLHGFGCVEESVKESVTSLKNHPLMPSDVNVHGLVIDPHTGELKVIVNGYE
Enter your answer as a number in nM; do not include the unit.

> print(dat)
                             molecule  measurement.kind  unit  endpoint.value
1  NS(=O)(=O)c1ccc(N2CCCCS2(=O)=O)cc1                Ki    nM            63.1

Let me check: Cc1ccc(-c2cc(C(F)(F)F)nn2-c2ccc(S(N)(=O)=O)cc2)cc1 , system UniProt:A0A0H2YPC2, measured Ki is 312

Let me check: Cc1onc(-c2ccccc2)c1-c1ccc(S(N)(=O)=O)cc1 , system UniProt:A0A0H2YPC2, measured Ki is 160

Let me check: CCN1CCCC1CNC(=O)c1cc(S(N)(=O)=O)ccc1OC (stereo not drawn) [SLP, sulpiride] , system UniProt:A0A0H2YPC2, measured Ki is 389

Let me check: NS(=O)(=O)c1cc(Cl)c(Cl)c(S(N)(=O)=O)c1 [DCP, dichlorophenamide] , system UniProt:A0A0H2YPC2, measured Ki is 68

Let me check: CCN[C@H]1CN(CCCOC)S(=O)(=O)c2sc(S(N)(=O)=O)cc21 [BRZ, brinzolamide] , system UniProt:A0A0H2YPC2, measured Ki is 121

Let me check: CC(=O)N=c1sc(S(N)(=O)=O)nn1C [MZA, methazolamide] , system UniProt:A0A0H2YPC2, measured Ki is 113

====

Tgt: UniProt A0A0H2YPC2
Reported Ki values for the following compounds.
Enter your answer as a number in nM; do not include the unit.

Here is how some compounds turned out for Ki.
> print(dat)
                                   compound  measurement.kind  unit  endpoint.value
1  NS(=O)(=O)c1cc2c(cc1Cl)NCNS2(=O)=O [HCT, hydrochlorothiazide]                Ki    nM             219
2  NS(=O)(=O)c1nnc(NS(=O)(=O)c2ccccc2)s1 [BZA, benzolamide]                Ki    nM             497
3  CC1(C)O[C@@H]2[C@@H](CO[C@@]3(COS(N)(=O)=O)OC(C)(C)O[C@@H]23)O1 [TPM, topiramate]                Ki    nM             204
4  NS(=O)(=O)c1ccc(S(=O)(=O)Nc2cccc3c(Cl)c[nH]c23)cc1 [IND, indisulam]                Ki    nM             173

Let me check: NS(=O)(=O)c1ccc(CCNS(=O)(=O)c2ccc([N+](=O)[O-])cc2CO)cc1 [compound 24] , system UniProt A0A0H2YPC2, measured Ki is 51.2
